Where these numbers come from: patent US20250136722A1

Biological target: Anti-cotinine antibody (SEQ ID NO: 11 / SEQ ID NO: 12, rabbit variable region with human IgG1 Fc domain)
Test: Binding of anti-cotinine antibody to ARM compounds by SPR, Biacore T200, 37° C. (Example 202)
Conditions: pH 7.4, rabbit variable region/human IgG1 Fc antibody captured on protein A
experimental.readout: pKd of Antibody for ARM Compound of Formula (I)
Give your answer as a number; write no unit.

// below: answered compounds
# compound, endpoint.result
data = [
    ("CCN1C(=O)C[C@H](C(=O)NCCOCCOCCOCCC(=O)N[C@H]2CC[C@@H](C(=O)N[C@@H]3C[C@H](N(C)C(C)C)CC[C@@H]3N3CC[C@H](Nc4ncnc5ccc(C(F)(F)F)cc45)C3=O)CC2)[C@H]1c1cccnc1 [Example 34]", 9.933),
    ("CC(C)N(C)[C@@H]1CC[C@H](N2CC[C@H](Nc3ncnc4ccc(C(F)(F)F)cc34)C2=O)[C@H](Nc2c(NCCOCCOCCOCCOCCOCCNC(=O)[C@H]3CC(=O)N(C)[C@@H]3c3cccnc3)c(=O)c2=O)C1 [Example 85]", 9.6885),
    ("CC(C)N(C)[C@@H]1CC[C@H](N2CC[C@H](Nc3ncnc4ccc(C(F)(F)F)cc34)C2=O)[C@H](NC(=O)[C@H]2CC[C@H](NC(=O)CCCC(=O)NCCCOCCCNC(=O)[C@H]3CC(=O)N(C)[C@@H]3c3cccnc3)CC2)C1 [Example 19]", 9.19),
    ("CC(C)N(C)[C@@H]1CC[C@H](N2CC[C@H](Nc3ncnc4ccc(C(F)(F)F)cc34)C2=O)[C@H](NC(=O)CCOCCOCCOCCNc2c(NCCCNC(=O)[C@H]3CC(=O)N(C)[C@@H]3c3cccnc3)c(=O)c2=O)C1 [compound 169]", 9.0085),
    ("CN1C(=O)C[C@H](C(=O)NCCOCCOCCOCCC(=O)N[C@H]2CC[C@@H](C(=O)N[C@@H]3C[C@H](NC(C)(C)C)CC[C@@H]3N3CC[C@H](Nc4ncnc5ccc(C(F)(F)F)cc45)C3=O)CC2)[C@H]1c1cccnc1 [Example 23]", 9.2166),
    ("CC(C)N(C)[C@@H]1CCC(N2CC[C@H](Nc3ncnc4ccc(C(F)(F)F)cc34)C2=O)[C@H](NC(=O)CCOCCOCCOCCOCCOCCNC(=O)[C@H]2CC(=O)N(C)[C@@H]2c2cccnc2)C1 (stereo partly drawn) [Example 40]", 9.4525),
    ("CC(C)N(C)[C@@H]1CC[C@H](N2CC[C@H](Nc3ncnc4ccc(C(F)(F)F)cc34)C2=O)[C@H](NC(=O)COCCNC(=O)COCCNC(=O)COCCNC(=O)[C@H]2CC(=O)N(C)[C@@H]2c2cccnc2)C1 [Example 111]", 9.0855),
    ("CC(C)N(C)[C@@H]1CC[C@H](N2CC[C@H](Nc3ncnc4ccc(C(F)(F)F)cc34)C2=O)[C@H](NC(=O)[C@H]2CC[C@@H](NC(=O)CCOCCNC(=O)COCCNC(=O)[C@H]3CC(=O)N(C)[C@@H]3c3cccnc3)CC2)C1 [Example 98]", 9.0095),
]

Q) Return pKd of Antibody for ARM Compound of Formula (I) for the following compound: CC(C)N(C)[C@@H]1CC[C@H](N2CC[C@H](Nc3ncnc4ccc(C(F)(F)F)cc34)C2=O)[C@H](NC(=O)CCOCCOCCOCCNc2c(NCCNC(=O)[C@H]3CC(=O)N(C)[C@@H]3c3cccnc3)c(=O)c2=O)C1 [Example 168]
A) 9.06
